Target: T1, IL-2R on human primary T cells (human, UniProt P01589 22-272; P14784 27-551; P31785 23-369)
T1 sequence (looked up) 1: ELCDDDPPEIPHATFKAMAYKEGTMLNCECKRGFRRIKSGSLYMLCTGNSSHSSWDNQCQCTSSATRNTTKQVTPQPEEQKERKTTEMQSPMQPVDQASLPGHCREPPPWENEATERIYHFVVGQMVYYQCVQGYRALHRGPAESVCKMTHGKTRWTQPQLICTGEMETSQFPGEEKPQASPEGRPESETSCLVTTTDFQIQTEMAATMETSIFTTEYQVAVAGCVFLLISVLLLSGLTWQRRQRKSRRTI
T1 sequence (looked up) 2: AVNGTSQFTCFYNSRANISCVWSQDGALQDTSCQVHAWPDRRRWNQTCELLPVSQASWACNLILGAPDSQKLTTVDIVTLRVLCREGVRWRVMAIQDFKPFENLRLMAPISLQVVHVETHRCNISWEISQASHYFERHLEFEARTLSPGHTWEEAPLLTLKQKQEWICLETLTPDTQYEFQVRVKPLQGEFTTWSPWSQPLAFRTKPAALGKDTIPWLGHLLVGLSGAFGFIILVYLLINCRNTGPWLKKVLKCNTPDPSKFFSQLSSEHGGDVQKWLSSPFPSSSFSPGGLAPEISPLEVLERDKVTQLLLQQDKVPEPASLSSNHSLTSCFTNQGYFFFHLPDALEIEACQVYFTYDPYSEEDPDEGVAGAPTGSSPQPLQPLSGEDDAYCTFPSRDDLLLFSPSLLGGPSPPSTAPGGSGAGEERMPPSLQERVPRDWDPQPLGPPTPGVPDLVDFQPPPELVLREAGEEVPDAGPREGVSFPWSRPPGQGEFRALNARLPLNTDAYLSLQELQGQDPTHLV
T1 sequence (looked up) 3: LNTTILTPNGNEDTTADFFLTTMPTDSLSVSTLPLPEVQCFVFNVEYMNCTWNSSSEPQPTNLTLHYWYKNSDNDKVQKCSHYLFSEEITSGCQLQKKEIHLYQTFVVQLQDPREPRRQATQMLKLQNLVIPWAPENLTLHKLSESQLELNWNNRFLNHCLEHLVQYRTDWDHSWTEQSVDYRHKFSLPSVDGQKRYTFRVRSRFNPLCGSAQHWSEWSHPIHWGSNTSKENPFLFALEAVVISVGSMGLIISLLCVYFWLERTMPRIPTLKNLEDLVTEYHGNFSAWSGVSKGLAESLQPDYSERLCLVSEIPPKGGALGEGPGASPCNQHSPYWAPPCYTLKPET
Test: cell-based or functional assay
In this section we review reported CD4 conv EC50 (nM), STAT5 phosphorylation values for a set of binders.
quantity.name: CD4 conv EC50 (nM), STAT5 phosphorylation

binder	result.unit	reading
SEQ ID NO 24 (ligand) APTSSSTKKTQLQLEHLLLDLQMILNGINNHKNPKLTRMLTFKFYMPKKATELKHLQCLEEELKPLEEVLRLAQSKNFHLRPRDLISDINVIVLELKGSETTFMCEYADETATIVEFLNRWITFSTSIISTLT	nM	4000
SEQ ID NO 33 (ligand) APTSSSTKKTQLQLEHLLLDLQMILNGINNYKNPKLTRMLTFKFYMPKKATELKHLQCLEEELKPLEEVLNLAPSKNFHLRPRDLISDINVIVLELKGSETTFMCEYADETATIVEFLNRWITFSQSIISTLT	nM	4000
SEQ ID NO 27 (ligand) APTSSSTKKTQLQLEHLLLDLQMILNGINNHKNPRLTRMLTFKFYMPKKATELKHLQCLEEELKPLEEVLRLAPSKNFHLRPRDLISNINVIVLELKGSETTFMCEYADETATIVEFLNRWITFSTSIISTLT	nM	4000
SEQ ID NO 36 (ligand) APTSSSTKKTQLQLEHLLLDLQMILNGINNHKNPKLTRMLTFKFYMPKKATELKHLQCLEEELKPLEEALNLAQSKNFHLRPRDLISDINVIVLELKGSETTFMCEYADETATIVEFLNRWITFSQSIISTLT	nM	4000
